// data source = patent US10435412B2

# test.target: GPR55 receptor (Homo sapiens, UniProt Q9Y2T6)
# Construct: expressed in transfected cells
# Sequence (Q9Y2T6 whole entry): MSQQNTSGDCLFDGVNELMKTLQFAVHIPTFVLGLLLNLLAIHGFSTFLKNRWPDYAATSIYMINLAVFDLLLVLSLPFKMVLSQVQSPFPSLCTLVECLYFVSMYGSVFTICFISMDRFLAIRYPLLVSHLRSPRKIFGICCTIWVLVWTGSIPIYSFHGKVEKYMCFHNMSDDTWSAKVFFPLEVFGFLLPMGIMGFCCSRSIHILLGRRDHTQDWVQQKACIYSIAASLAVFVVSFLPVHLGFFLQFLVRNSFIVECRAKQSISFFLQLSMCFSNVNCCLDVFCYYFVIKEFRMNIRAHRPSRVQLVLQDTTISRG
# assay.comment: GPR55 agonist activity, real-time cell impedance (xCELLigence) in hGPR55-HEK293 cells
# Type: cell-based
# run.conditions: maximum effect relative to LPI 1 μM = 100%; mean (95% confidence interval); read-out: Emax (%), agonist action on GPR55
Output rule met for records whose Emax is lower than 50%, rule not met for records at or above 50%.

COc1ccc2c(c1)OC(C)(C)c1cn(CCN3CCN(C(=O)c4cccs4)CC3)nc1-2 ... rule met
COc1ccc2c(c1)OC(C)(C)c1cn(CCN3CCN(C(=O)c4ccco4)CC3)nc1-2 ... rule met
COc1ccc2c(c1)OC(C)(C)c1cn(CCN3CCN(C(=O)C4CCCCC4)CC3)nc1-2 ... rule met
COc1ccc2c(c1)OC(C)(C)c1cn(CCN3CCN(C(=O)COc4ccccc4)CC3)nc1-2 ... rule not met

* * *

measured.attribute: melting point

COc1ccc2c(c1)OC(C)(C)c1cn(CCN3CCN(C(=O)C4CCCCC4)CC3)nc1-2 ... 151 to 152 °C
COc1ccc2c(c1)OC(C)(C)c1cn(CCN3CCN(C(=O)c4cccs4)CC3)nc1-2 ... 163 to 165 °C
COc1ccc2c(c1)OC(C)(C)c1cn(CCN3CCN(C(=O)COc4ccccc4)CC3)nc1-2 ... 177 to 179 °C
COc1ccc2c(c1)OC(C)(C)c1cn(CCN3CCN(C(=O)C4CCCO4)CC3)nc1-2 (stereo not shown) ... 158 to 160 °C

* * *

# test.target: GPR55 receptor (Homo sapiens)
# Construct: expressed in transfected cells
# assay.comment: GPR55 agonist activity, real-time cell impedance (xCELLigence) in hGPR55-HEK293 cells
# Format: cell-based
# run.conditions: maximum effect relative to LPI 1 μM = 100%; mean (95% confidence interval); read-out: Emax (%), agonist action on GPR55
// reported Emax per item
measured.attribute: Emax (%)

COc1ccc2c(c1)OC(C)(C)c1cn(CCN3CCN(C(=O)c4ccccc4)CC3)nc1-2 ... 51
COc1ccc2c(c1)OC(C)(C)c1cn(CCN3CCN(C(=O)C4CCCO4)CC3)nc1-2 (stereo not shown) ... 51
COc1ccc2c(c1)OC(C)(C)c1cn(CCN3CCN(C(=O)C(C)(C)C)CC3)nc1-2 ... 49
COc1ccc2c(c1)OC(C)(C)c1cn(CNC(=O)CN3CCN(c4ccccc4OC)CC3)nc1-2 ... 51
